Tested on: Cavia porcellus
assay name: In vivo inhibition of beta-adrenoceptor in histamine-treated guinea pig assessed as inhibition of isoproterenol-induced bronchodilator effect at 0.1 mg/kg, iv administered 3 mins prior to histamine/isoproterenol challenge relative to control
Type: functional
For each record, write down the corresponding inhibition in vivo at 0.1 mg/kg.
Provide only the numeric value, understood in %.

inhibition in vivo at 0.1 mg/kg recorded for this compound, CC(C)(C)NCC(O)c1scc(Br)c1Br (racemic) , is 100

inhibition in vivo at 0.1 mg/kg recorded for this compound, CC(C)NCC(O)c1cc(Br)c(Br)s1.Cl (racemic) , is 40

inhibition in vivo at 0.1 mg/kg recorded for this compound, CC(C)(C)NCC(O)c1cc(Br)c(Br)s1 (racemic) , is 100

inhibition in vivo at 0.1 mg/kg recorded for this compound, CC(C)(C)NCC(O)c1cc(Br)cs1 (racemic) , is 25

inhibition in vivo at 0.1 mg/kg recorded for this compound, CC(C)(C)NCC(O)c1sc(Cl)c(Cl)c1Cl (racemic) , is 100

inhibition in vivo at 0.1 mg/kg recorded for this compound, CC(C)NCC(O)COc1cccc2ccccc12 (stereo unspecified) , is 100

* * *

For each record, write down the corresponding inhibition in vivo at 1 mg/kg.
Tested on: Felis catus
assay name: In vivo inhibition of beta-adrenoceptor in cat assessed as inhibition of isoproterenol-induced hypotension at 1 mg/kg, iv relative to control
Type: functional
Provide only the numeric value, understood in %.

inhibition in vivo at 1 mg/kg recorded for this compound, CC(C)(C)NCC(O)c1cc(Br)c(Br)s1 (racemic) , is 95

inhibition in vivo at 1 mg/kg recorded for this compound, CC(C)NCC(O)c1cc(Br)cs1 (racemic) , is 82

inhibition in vivo at 1 mg/kg recorded for this compound, CC(C)NCC(O)c1ccc(Br)s1.Cl (racemic) , is 72

inhibition in vivo at 1 mg/kg recorded for this compound, CC(C)(C)NCC(O)c1scc(Br)c1Br (racemic) , is 97

inhibition in vivo at 1 mg/kg recorded for this compound, CC(C)(C)NCC(O)c1sc(Cl)cc1Cl (racemic) , is 65

inhibition in vivo at 1 mg/kg recorded for this compound, CC(C)NCC(O)COc1cccc2ccccc12 (centres undefined) [PROPRANOLOL] , is 100

inhibition in vivo at 1 mg/kg recorded for this compound, CC(C)NCC(O)c1cc(Cl)cs1 (racemic) , is 75

inhibition in vivo at 1 mg/kg recorded for this compound, CC(C)(C)NCC(O)c1cc(Br)cs1 (racemic) , is 50

inhibition in vivo at 1 mg/kg recorded for this compound, CC(C)(C)NCC(O)c1sc(Cl)c(Cl)c1Cl (racemic) , is 100

inhibition in vivo at 1 mg/kg recorded for this compound, CC(C)NCC(O)c1cc(Br)c(Br)s1.Cl (racemic) , is 100

inhibition in vivo at 1 mg/kg recorded for this compound, CC(C)(C)NCC(O)c1sc(Br)cc1Br (racemic) , is 89

inhibition in vivo at 1 mg/kg recorded for this compound, CC(C)NCC(O)c1sc(Br)c(Br)c1Br (racemic) , is 88

inhibition in vivo at 1 mg/kg recorded for this compound, CC(C)(C)NCC(O)c1sc(Br)c(Br)c1Br (racemic) , is 100

inhibition in vivo at 1 mg/kg recorded for this compound, CC(C)NCC(O)c1sc(Cl)c(Cl)c1Cl (racemic) , is 85
